# CONDITION_NOTES: in n-hexane, 318.15 K
READOUT_TYPE: solubility (mole fraction)
API doc: respond with a numeric literal and nothing else, no unit.

Supply reported solubility (mole fraction) belonging to this compound: `COc1cc(/C=C/C(=O)CC(=O)/C=C/c2ccc(O)c(OC)c2)ccc1O`
0.00048

---

# CONDITION_NOTES: in ethyl acetate, 308.15 K
READOUT_TYPE: solubility (mole fraction)
API doc: respond with a numeric literal and nothing else, no unit.

Supply reported solubility (mole fraction) belonging to this compound: `COc1cc(/C=C/C(=O)CC(=O)/C=C/c2ccc(O)c(OC)c2)ccc1O`
0.00357

---

# CONDITION_NOTES: in DMSO, 298.15 K
READOUT_TYPE: solubility (mole fraction)
API doc: respond with a numeric literal and nothing else, no unit.

Supply reported solubility (mole fraction) belonging to this molecule: `COc1cc(/C=C/C(=O)CC(=O)/C=C/c2ccc(O)c(OC)c2)ccc1O`
0.24

---

# CONDITION_NOTES: in ethyl acetate, 288.15 K
READOUT_TYPE: solubility (mole fraction)
API doc: respond with a numeric literal and nothing else, no unit.

Supply reported solubility (mole fraction) belonging to this compound: `COc1cc(/C=C/C(=O)CC(=O)/C=C/c2ccc(O)c(OC)c2)ccc1O`
0.00227

---

# CONDITION_NOTES: in acetone, 283.15 K
READOUT_TYPE: solubility (mole fraction)
API doc: respond with a numeric literal and nothing else, no unit.

Supply reported solubility (mole fraction) belonging to this compound: `COc1cc(/C=C/C(=O)CC(=O)/C=C/c2ccc(O)c(OC)c2)ccc1O`
0.00986

---

# CONDITION_NOTES: in ethyl acetate, 278.15 K
READOUT_TYPE: solubility (mole fraction)
API doc: respond with a numeric literal and nothing else, no unit.

Supply reported solubility (mole fraction) belonging to this molecule: `COc1cc(/C=C/C(=O)CC(=O)/C=C/c2ccc(O)c(OC)c2)ccc1O`
0.00176

---

# CONDITION_NOTES: in ethanol, 318.15 K
READOUT_TYPE: solubility (mole fraction)
API doc: respond with a numeric literal and nothing else, no unit.

Supply reported solubility (mole fraction) belonging to this molecule: `COc1cc(/C=C/C(=O)CC(=O)/C=C/c2ccc(O)c(OC)c2)ccc1O`
0.00127

---

# CONDITION_NOTES: in m-xylene, 318.15 K
READOUT_TYPE: solubility (mole fraction)
API doc: respond with a numeric literal and nothing else, no unit.

Supply reported solubility (mole fraction) belonging to this compound: `COc1cc(/C=C/C(=O)CC(=O)/C=C/c2ccc(O)c(OC)c2)ccc1O`
0.00057

---

# CONDITION_NOTES: in acetonitrile, 313.15 K
READOUT_TYPE: solubility (mole fraction)
API doc: respond with a numeric literal and nothing else, no unit.

Supply reported solubility (mole fraction) belonging to this compound: `COc1cc(/C=C/C(=O)CC(=O)/C=C/c2ccc(O)c(OC)c2)ccc1O`
0.00194

---

# CONDITION_NOTES: in m-xylene, 288.15 K
READOUT_TYPE: solubility (mole fraction)
API doc: respond with a numeric literal and nothing else, no unit.

Supply reported solubility (mole fraction) belonging to this molecule: `COc1cc(/C=C/C(=O)CC(=O)/C=C/c2ccc(O)c(OC)c2)ccc1O`
0.00022
